Each item that follows carries a reported EC50.
- Test system: CEM cells HIV-1 protection, formazan growth assay
- ASSAY_TEXT: NCI AIDS Antiviral Assay

| COMPOUND | EC50 |
| --- | --- |
| CCCCCC(=O)NC(=S)Nc1nn[nH]n1 | > 200 µM |
| O=C1/C(=C/c2ccc(Cl)cc2)Oc2cc(O)ccc21 | > 200 µM |
| Cc1cn(C2CC(n3cncn3)C(C(C)O)O2)c(=O)[nH]c1=O (configuration not stated) | > 813 µM |
| C#CCSc1nnnn1-c1ccc(Br)c(C)c1 | > 200 µM |
| CCOP(=O)(OCC)/C(C#N)=C\c1cccc2ccccc12 | > 83.2 µM |
| CCOc1ccc(NC(=O)C(=O)CC(=O)c2c(C)n([O-])c3ccccc3[n+]2=O)cc1 | > 6.61 µM |
| CCOC(=O)c1nnsc1N/N=C\c1ccc([N+](=O)[O-])cc1 | > 200 µM |
| OC(c1ccco1)C(F)(F)c1nc2ccccc2o1 (configuration not stated) | > 200 µM |
| C=C1CN(S(=O)(=O)c2ccc(C)cc2)CCCN(Cc2ccsc2)CCCN(S(=O)(=O)c2ccc(C)cc2)C1 | > 200 µM |
| CC(=O)N1CCSC(C(=O)Nc2ccccc2)=C1C | > 646 µM |
| CCC1(CCO)C(=O)NC(=Nc2ccccc2)NC1=O (configuration not stated) | > 479 µM |
| CN1C(=O)c2ccccc2C2(O)c3ccccc3-c3ccccc3C12O (configuration not stated) | > 20 µM |

====

- System: CEM cells HIV-1 protection, formazan growth assay
- ASSAY_TEXT: NCI AIDS Antiviral Assay
pEC50: −log10 of the molar value. Where a SMILES comes first, the peptide text is derived from it.
Each item that follows carries a reported pEC50.

| COMPOUND | SYSTEM_TESTED | pEC50 |
| --- | --- | --- |
| O=C1OC(N=P(c2ccccc2)(c2ccccc2)c2ccccc2)C(N=P(c2ccccc2)(c2ccccc2)c2ccccc2)=C1Cl (centres undefined) | CEM cells HIV-1 protection, formazan growth assay | < 4.70 |
| O=C1CCn2c([nH]c3cccc4cccc2c43)=N1 | CEM cells HIV-1 protection, formazan growth assay | < 3.82 |
| CC1(C)CC(=O)C2=C(C1)C(c1ccccc1Cl)C1C(=O)CC(C)(C)CC1(O)O2 (centres undefined) | CEM cells HIV-1 protection, formazan growth assay | < 3.70 |
| CC1=CC(=O)N(n2c(Cc3ccc(Cl)cc3)n[nH]c2=O)C1=O | CEM cells HIV-1 protection, formazan growth assay | < 3.70 |
| COc1c2c(cc3c1[C@@H]1Oc4c(ccc(O)c4CC=C(C)C)[C@@H]1CO3)OC(C)(C)C=C2 | CEM cells HIV-1 protection, formazan growth assay | 5.65 |
| COc1ccccc1Nc1nc2c([nH]1)c(=O)n(C)c(=O)n2C | CEM cells HIV-1 protection, formazan growth assay | < 3.70 |
| CC(=O)Nc1ccc(-c2nnc(SCC(=O)Nc3ccc(C)cc3)o2)cc1 | CEM cells HIV-1 protection, formazan growth assay | < 4.17 |
| CC(NNC(=O)c1ccncc1)c1ccc(Cl)cc1Cl (centres undefined) | CEM cells HIV-1 protection, formazan growth assay | < 3.70 |
| CC[N+]1(C)CSC(=S)N(C)C1 (centres undefined) | CEM cells HIV-1 protection, formazan growth assay | < 3.70 |
| OCc1c2c(cc3c1CC1(C3)Cc3cc4c(c(CO)c3C1)CCC4)CCC2 | CEM cells HIV-1 protection, formazan growth assay | < 3.70 |
| CC(C)NC1CCCCC2c3ccccc3C12O (centres undefined) | CEM cells HIV-1 protection, formazan growth assay | 3.84 |
| O=C(/C=C\c1ccccc1)Oc1ccc(/C=C2\CCC/C(=C\c3ccc(OC(=O)/C=C\c4ccccc4)cc3)C2=O)cc1 | CEM cells HIV-1 protection, formazan growth assay | < 4.00 |
| CCC(C)C(NC(=O)CNC(=O)C(Cc1cnc[nH]1)NC(=O)C(NC(=O)C(CS)NC(=O)C(CCC(N)=O)NC(=O)C(NC(=O)C(NC(=O)C(CO)NC(=O)C(NC(=O)C(CC(N)=O)NC(=O)C(NC(=O)C(CO)NC(=O)C1CCCN1C(=O)CNC(=O)C(NC(=O)CN)C(C)O)C(C)O)C(C)C)C(C)O)C(C)C)C(C)O)C(=O)NC(CCCN=C(N)N)C(N)=O (centres undefined) (H-GTGPSTNVSTVQCTHGIR-NH2; configuration not given here) | CEM cells HIV-1 protection, formazan growth assay | < 4.30 |
| O=C1CNS(=O)(=O)N1 | CEM cells HIV-1 protection, formazan growth assay | < 2.74 |
| N#Cc1c(N2CCOCC2)ncn(-c2ccccc2)c1=O | CEM cells HIV-1 protection, formazan growth assay | < 3.70 |
| O=C1OCCN1N1C(=O)CC2(CCN(Cc3ccccc3)CC2)C1=O | CEM cells HIV-1 protection, formazan growth assay | < 3.70 |
| Cc1cccc(N=C2NC(=O)C(CC(=O)Nc3cccc(C)c3C)S2)c1 (centres undefined) | CEM cells HIV-1 protection, formazan growth assay | < 4.15 |
| COC(=O)C1C(=O)N(C)C(=O)N2CCCC12 (centres undefined) | CEM cells HIV-1 protection, formazan growth assay | < 3.70 |
| O=[N+]([O-])C(=C/c1cccs1)/C(=C\c1cccs1)[N+](=O)[O-] | CEM cells HIV-1 protection, formazan growth assay | < 3.70 |
